system: COLO 205; experiment: NCI tumour cell line growth inhibition, 48 h
Calls of active or inactive are those of the source. No stated cut-off is given here; in the data, active = GI50 up to about 1.1 µM and inactive = higher.
measured_attribute: GI50

molecule	recorded_measurement
CCOC(=O)/C(C#N)=C1/SC(C(=O)N/N=C/c2ccc(OC)cc2)=C(N)N1c1ccccc1	> 100 µM (inactive)
COC(=O)CC[C@@H](NC(=O)C(C)NC(=O)COC1C(O)C(COC(=O)CCCCCCCCCCNC(=O)c2ccc([N+](=O)[O-])c3[nH]c4cc(Br)ccc4c(=O)c23)OC(OCc2ccccc2)C1NC(C)=O)C(N)=O (some centres undefined)	96.6 µM (inactive)
OCCSCc1cc(Cl)cc(Cl)c1O	> 100 µM (inactive)
O=c1c(Cc2c(O)oc3cc(O)ccc3c2=O)c(O)oc2cc(O)ccc12	> 100 µM (inactive)

----------
system: COLO 205; experiment: NCI tumour cell line growth inhibition, 48 h
The source made the active and inactive calls. Rule as the data show it: active = GI50 up to about 1.1 µM and inactive = higher.
measured_attribute: GI50

compound	test_system	measured_attribute	recorded_measurement
C/C=C1\CN2CCc3c([nH]c4ccccc34)C2CC1C(=O)OC (stereo not given)	COLO 205	GI50	> 322 µM (inactive)
CCOC(=O)C(=Cc1[nH]c2ccccc2c1-c1c[nH]c2ccccc12)C(=O)OCC	COLO 205	GI50	16.2 µM (inactive)
CC(=O)Oc1ccc2c(c1)O/C(=C\c1ccc(O)cc1)C2=O	COLO 205	GI50	> 100 µM (inactive)
O=S(=O)(N/N=C\c1c2ccccc2[n+]([O-])c2ccccc12)c1ccc(Cl)cc1	COLO 205	GI50	> 100 µM (inactive)
O=C1C(=Cc2cccs2)C(=O)N(CCc2ccccc2)S(=O)(=O)N1CCc1ccccc1	COLO 205	GI50	> 50 µM (inactive)
Cc1nc2c(N3CCCC3)nc(N3CCNCC3)nc2nc1NCc1ccccc1	COLO 205	GI50	1.24 µM (inactive)
COc1cccc(/C=C2\CCCCCC2=O)c1	COLO 205	GI50	> 100 µM (inactive)
Cc1c(/C=N\NC(=S)N(C)CCN(C)C(=S)N/N=C\c2c(C)n(C)n(-c3ccccc3)c2=O)c(=O)n(-c2ccccc2)n1C	COLO 205	GI50	> 100 µM (inactive)
COC(=O)C#Cc1cccc(OC)c1OC	COLO 205	GI50	27 µM (inactive)
CCN(CC)CCOC(c1ccccc1)c1ccccc1.CCOC(=O)Nc1ccc(S(=O)(=O)NCCCl)cc1.CCOC(=O)Nc1ccc(S(=O)(=O)NCCCl)cc1.Nc1ccc(C(=O)O)c(O)c1	COLO 205	GI50	> 100 µM (inactive)

----------
GI50 values by entry
system: RXF 393; assay: NCI tumour cell line growth inhibition, 48 h
Active and inactive are the calls of the source. Cut-off read from the data, not from the text of the source: active = GI50 up to about 1.1 µM and inactive = higher.

molecule	GI50
CN(CCO)c1nc(=O)c2c(n1C1OC(CO)C(O)C(O)C1O)CCCC2 (stereo not drawn)	> 100 µM (inactive)
COc1ccc(-c2csc(-n3c(-c4ccccc4)nc4c(Br)cc(Br)cc4c3=O)n2)cc1	26.3 µM (inactive)
CCC(c1ccc2cc(O)ccc2c1)C(C)(C)C(=O)O (stereo not drawn)	> 100 µM (inactive)
COc1cccc(C2c3cc4c(cc3OC(NNc3ccccc3)C2C)OCO4)c1OC (stereo not drawn)	3.76 µM (inactive)
COc1cccc(C(=O)Nc2c3ccccc3nc3ccccc23)c1OC	23.4 µM (inactive)
O=[N+]([O-])/C(Cl)=C(/C(Cl)=C(Cl)Cl)N1CCCCC1	7.26 µM (inactive)
N#Cc1sc2c(c1OC(=O)c1ccccc1)c(=O)n(-c1ccccc1)c(=S)n2-c1ccccc1	14.3 µM (inactive)
O=C1C=CC2(C=C1)CCNC1=C2C(=O)c2ccccc2C1=O	> 100 µM (inactive)
CCOC(=O)C1S/C(=N\C(=N)N[N+](=O)[O-])N=C1C (stereo not drawn)	> 100 µM (inactive)
O=C1NC(SSC2=NNC3(C(=O)N2)c2ccccc2-c2ccccc23)=NNC12c1ccccc1-c1ccccc12	> 10 µM (inactive)
N=C(N)Nc1ncccc1[N+](=O)[O-]	> 100 µM (inactive)
c1ccc(CSc2nc(N3CCCCC3)c3cn[nH]c3n2)cc1	16.1 µM (inactive)
CC#CC1/C(=C\C(=O)OC)CCCC1O (stereo not drawn)	> 100 µM (inactive)

----------
tested on: SF-268; assay: NCI tumour cell line growth inhibition, 48 h
The source made the active and inactive calls. No stated cut-off is given here; in the data, active = GI50 up to about 1.1 µM and inactive = higher.
Possible outcomes: active, inactive

compound	cat
O=C(N/C=C/C=C/Sc1ccccc1)OCc1ccccc1	inactive
Oc1cccnc1CN1CCCCC1	inactive
CC(C)(C)N1C(=O)[N-]/[N+](=C(/C(c2ccccc2)=[N+]2/[N-]C(=O)N(C(C)(C)C)C2=O)c2ccccc2)C1=O	inactive
COc1cc2nncc(Sc3cnnc4ccccc34)c2cc1OC	inactive
O=C(N/C(=C\c1cccc([N+](=O)[O-])c1)c1nc2c3c(ccc2[nH]1)C(=O)c1ccccc1C3=O)c1ccccc1	inactive
C=C1C(C(O)C[C@H](C)C2O[C@@]3(CCCCO3)CCC2C)O[C@@H]2CCC3(CCC(/C=C/[C@@H](C)C4CC(C)=CC5(O4)O[C@H](C[C@](C)(O)C(=O)O)CCC5O)O3)OC2[C@@H]1O (some centres undefined)	active
COc1cccc(C2c3cc4c(cc3OC(NNc3ccccc3)C2C)OCO4)c1OC (centres undefined)	inactive
CC(NC(=O)CNP(=O)(c1ccccc1)c1ccccc1)C(=O)NC(Cc1ccccc1)C(=O)OCc1ccccc1 (centres undefined)	inactive
COc1c(OC)c(OC)c(-c2cc(=O)c3c(OC)c(OC)c(OC)c(OC)c3o2)c(OC)c1OC	inactive
CC(=O)Nc1nc(O)c2nc(C=O)cnc2n1	inactive
CCC1(OC(C)=O)C(=O)OCc2c1cc1n(c2=O)Cc2cc3ccccc3nc2-1 (centres undefined)	active
COc1nc(Cl)c(Cl)c(Cl)n1.COc1nc(Cl)nc(Cl)c1Cl	inactive
c1ccc([S+](c2ccccc2)c2ccc(Sc3ccc([S+](c4ccccc4)c4ccccc4)cc3)cc2)cc1	inactive
CC(=O)NC(CCCNC(=O)OCc1ccccc1)C(=O)NCc1ccccc1 (centres undefined)	inactive
O=C(CCCN1CCC2(CC1)CC(=O)N(N1CCCCCC1)C2=O)c1ccccc1	inactive
COc1ccc2c(c1)c(=O)c1c(NCCN(C)C)ccc3nnn2c31	inactive
COc1ccc([C@H]2[C@H]3COC(=O)[C@H]3C(C#N)=C3Sc4ccccc4N32)cc1	inactive
Cc1cc(C)nc(NS(=O)(=O)c2ccc(NC(=O)c3cccc4cc5ccccc5nc34)cc2)n1	inactive
Cn1cc(NC(=O)c2cc(NC(=O)CCCCCCC(=O)Nc3cc(C(=O)Nc4cc(C(=O)NCCC(=N)N)n(C)c4)n(C)c3)cn2C)cc1C(=O)NCCC(=N)N	inactive

----------
tested on: SR; experiment: NCI tumour cell line growth inhibition, 48 h
The source made the active and inactive calls. Rule as the data show it: active = GI50 up to about 1.1 µM and inactive = higher.
GI50 values by entry

compound	GI50
COC(C/C(=C/CO[Si](C(C)C)(C(C)C)C(C)C)C(=O)N(COCC[Si](C)(C)C)c1ccccc1I)OC	> 100 µM (inactive)
C=C(OC1C(C)=C2C(C1OC(=O)CCCCCCC)C(C)(OC(C)=O)CC(OC(=O)CCC)C1(O)C2OC(=O)C1(C)O)/C(C)=C/C (stereo not drawn)	0.000145 µM (active)
N=C(N)C1=C(O)NC(=O)N(C2CCCCC2)C1	> 100 µM (inactive)
COc1nc(Cl)c(Cl)c(Cl)n1.COc1nc(Cl)nc(Cl)c1Cl	0.09 µM (active)
Cc1c2c(n(Cc3ccccn3)c1C)NN=C(C#N)S2(=O)=O	> 100 µM (inactive)
CC[C@@]1(O)C(=O)OCc2c1cc1n(c2=O)Cc2c-1nc1ccccc1c2/C=N\c1ccc(N[C@@H]2c3cc4c(cc3[C@@H](c3cc(OC)c(O)c(OC)c3)[C@H]3C(=O)OC[C@@H]32)OCO4)cc1	< 0.01 µM (active)
O=C([O-])C1([n+]2c(-c3ccccc3)cc(-c3ccccc3)cc2-c2ccccc2)CC1	76.2 µM (inactive)
CCN1CCN=C2c3cc(OC)ccc3Nc3c([N+](=O)[O-])ccc1c32	0.244 µM (active)

----------
GI50 values by entry
system: OVCAR-5; test: NCI tumour cell line growth inhibition, 48 h
Active and inactive are the calls of the source. No stated cut-off is given here; in the data, active = GI50 up to about 1.1 µM and inactive = higher.

molecule	GI50
CCC(C)N1CN(c2ccccc2)C2(CCN(CCCSc3ccc(F)cc3)CC2)C1=O (stereo not given)	2.1 µM (inactive)
O=c1[nH]/c(=C/c2ccc(OCc3ccccc3)cn2)c(=O)[nH]/c1=C/c1ccc(Cl)cc1	> 100 µM (inactive)
N/N=C(\c1nc2ccc(Cl)cc2nc1O)C(O)c1ccc(Cl)c(Cl)c1 (stereo not given)	> 100 µM (inactive)
COc1ccc(S(=O)(=O)N/N=C(\C)CN2C(=O)c3ccccc3C2=O)cc1OC	> 100 µM (inactive)
O=C(Cc1ccccc1)NCCCN(CCCCN(CCCNC(=O)Cc1ccccc1)C(=O)OCc1ccccc1)C(=O)OCc1ccccc1	> 100 µM (inactive)
O=[N+]([O-])/C(Cl)=C(/C(Cl)=C(Cl)Cl)N1CCCCC1	14.9 µM (inactive)
NC(=O)c1ccc(/N=N/O)nc1	> 100 µM (inactive)
CCNC(=S)NNC(=O)C12CC3CC(CC(C3)C1)C2	> 100 µM (inactive)
CC(C)C(C)C(C)(C)P(C)(C)=O (stereo not given)	> 100 µM (inactive)
O=C1[C@@H]2Cc3c([nH]c4ccccc34)C(C3CCCCC3)N2C(=O)[C@@H]2CCCN12 (stereo not given in full)	37.8 µM (inactive)
